Measured cell viability, listed per entry for reference.
System: U2OS
assay protocol: cell viability relative to DMSO; higher = less toxic
measurement setup: 72 h; 100 nM
quantity: cell viability (%)

compound: CCS(=O)(=O)c1ccc2oc(-c3ccc4ccccc4c3)nc2c1 [ezutromid]
units label: %
reported: 105

compound: N#Cc1cc(CN2CCC(Nc3ncnc4sc(Cl)cc34)CC2)ccc1F
units label: %
reported: 96.3

compound: Cn1cc(C2=C(c3ccc(Cl)cc3Cl)C(=O)NC2=O)c2ccccc21
units label: %
reported: 97.8

---

System: U2OS
assay protocol: cell viability relative to DMSO; higher = less toxic
measurement setup: 72 h; 10000 nM
Measured cell viability, listed per entry for reference.
quantity: cell viability (%)

molecule: NC(=O)c1cc([N+](=O)[O-])cc([N+](=O)[O-])c1 [nitromide]
quantity: cell viability
units label: %
reported: 107
//
molecule: NC(=O)c1cnccn1 [pyrazinamide]
quantity: cell viability
units label: %
reported: 96
//
molecule: Cc1cc(C)c(NC(=O)N(Cc2ccc3c(c2)Cc2ccccc2-3)C2CCCCCC2)c(C)c1
quantity: cell viability
units label: %
reported: 79.9
//
molecule: Nc1ccc(S(=O)(=O)Nc2ccc(Cl)nn2)cc1
quantity: cell viability
units label: %
reported: 103
//
molecule: O=C1NC(=O)c2cc(Nc3ccc(F)cc3)c(Nc3ccc(F)cc3)cc21
quantity: cell viability
units label: %
reported: 87.9
//
molecule: Cc1nc2c(O)cccc2c(=O)[nH]1
quantity: cell viability
units label: %
reported: 101
//
molecule: Cc1cccc(Nc2ccccc2C(=O)O)c1C
quantity: cell viability
units label: %
reported: 101
//
molecule: Cc1ccc(C(=O)N(CCCN)[C@@H](c2nc3cc(Cl)ccc3c(=O)n2Cc2ccccc2)C(C)C)cc1
quantity: cell viability
units label: %
reported: 31.3
//
molecule: CCOC(=O)[C@H](Cc1ccc([N+](=O)[O-])cc1)NC(=O)c1ccccc1
quantity: cell viability
units label: %
reported: 102
//
molecule: CC1(CN)Cc2ccccc2C1
quantity: cell viability
units label: %
reported: 102
